test system: SNB-75 CNS; assay: NCI tumour cell line growth inhibition, 48 h
# TGI per record follows

Examples from the recorded data:
compound	TGI
CN(C)CC1CCCC/C1=N/O (stereo not given)	> 100 µM
O=S(=O)(O)c1cc(N=Nc2c(O)ccc3ccccc23)cc2c(S(=O)(=O)O)cccc12	> 100 µM
O=c1[nH]c(=O)n(C2COC(CO)C2O)cc1F (stereo not given)	> 100 µM
O=C(Nc1nc(=S)[nH][nH]1)C(=O)C(C(=O)c1ccc2ccccc2c1)C1OC(=O)c2ccccc21 (stereo not given)	63.1 µM
C=C(C)C(=O)O[C@@H]1C[C@@]2(C)O[C@@H]2C[C@H](O)/C(C)=C/[C@H]2OC(=O)C(=C)[C@@H]21	> 100 µM

Looking for the measured TGI of `CCOC(=O)CCCSCCCC(=O)CCCSCCCC(=O)OCC` , can you help?
> 100 µM

Looking for the measured TGI of O=C1c2cc3c(cc2CC12Cc1ccc4c(c1C2=O)CCC4)CCCC3 (stereo not given) , can you help?
> 100 µM

Looking for the measured TGI of `c1ccc(Nc2ncc(-c3ccccc3)o2)cc1` , can you help?
> 25 µM

Looking for the measured TGI of `c1ccc(-c2n(Cc3ccc4ccccc4n3)cc[n+]2Cc2ccc3ccccc3c2)cc1` , can you help?
3.15 µM

Looking for the measured TGI of `Cc1ccc(Nc2nc(NNC(=O)Cc3ccccc3)nc(NNC(=O)c3ccncc3)n2)cc1` , can you help?
> 10 µM

Looking for the measured TGI of `C/C=C/[C@@H]1O[C@@H]2COC(=O)C2=C[C@@H]1O` , can you help?
54 µM

Looking for the measured TGI of `COc1c2ccccc2c(OC)c2[nH]c(=O)ccc12` , can you help?
> 21.9 µM

Looking for the measured TGI of COc1cc2c(cc1OC)C(Cl)C(c1ccc(F)cc1)=C2Cl (stereo not given) , can you help?
29.1 µM

Looking for the measured TGI of `CC(=O)N[C@@H](Cc1ccc(OP(=O)(O)O)cc1)C(=O)N[C@H]1CCC(=O)N2CCC[C@@H](C(=O)Nc3cccc4ccccc34)N2C1=O` , can you help?
> 25 µM

Looking for the measured TGI of `Nc1nc2[nH]cc(CCc3ccc(C(=O)N[C@@H](CCC(=O)O)C(=O)O)cc3)c2c(=O)[nH]1` , can you help?
> 100 µM

Looking for the measured TGI of O=S1C(=c2ccc(=C3Sc4ccccc4S3)cc2)Sc2ccccc21 (stereo not given) , can you help?
35.8 µM

Looking for the measured TGI of Cc1ccc(C(=O)OC(C(=O)O)C(OC(=O)c2ccc(C)cc2)C(=O)O)cc1 (stereo not given) (tested in a mixture with another compound) , can you help?
14.8 µM

Looking for the measured TGI of CON(C)C(=O)C(C)N(Cc1ccccc1)Cc1ccccc1 (stereo not given) , can you help?
> 100 µM

Looking for the measured TGI of C=C1C(=O)O[C@@H]2/C=C(C)/C=C\[C@@H]3O[C@@]3(C)C[C@@H](O)C12 (stereo not given in full) , can you help?
> 100 µM

Looking for the measured TGI of `C=C1C(=O)O[C@H]2[C@H]1CC/C(CNC(=O)c1cc3ccccc3[nH]1)=C\CC[C@@]1(C)O[C@@H]21` , can you help?
21 µM

====

# TGI per record follows
tested on: U251 CNS; assay: NCI tumour cell line growth inhibition, 48 h

Examples from the recorded data:
compound	TGI
Fc1cc(-c2nnc3n2N=C(c2ccc(Cl)cc2)CS3)c(Cl)cc1Cl	28.4 µM
Nc1ncc2c(n1)-c1ccccc1OC2N1CCCCC1 (configuration not stated)	> 100 µM
O=C(O)C(Cl)Cl	> 10000 µM
CC1=C/C(=N\NC(N)=S)C(C(O)(C(F)(F)F)C(F)(F)F)C(C)(C)C1 (configuration not stated)	> 10 µM
O=[N+]([O-])c1cc([N+](=O)[O-])c(C(F)(F)F)cc1NN=C(c1ccc(O)cc1)c1ccc(O)cc1	11.7 µM
COc1cc(-c2nc3sccn3c2-c2ccnc(NCCNS(=O)(=O)c3ccc(F)cc3)n2)ccc1F	> 100 µM
O=c1[nH]c(=O)c2c3n(cc2[nH]1)CCCCC3	> 100 µM
COc1cc(-c2nn(-c3cccc(NC(=O)c4ccccc4)c3)cc2-c2ccncc2)ccc1Cl	24.4 µM
Cc1nnc2ccnn2c1C	> 100 µM
CCOC(=O)c1nnn(CCCCO)c1C(=O)OCC	> 100 µM

Looking for the measured TGI of `CCOC(=O)c1ccc(-c2cc(C)no2)[nH]1` , can you help?
> 100 µM

Looking for the measured TGI of `Cc1cc2c(cc1C)[n+](=O)c(C(=O)c1ccccc1)c(C(F)F)n2[O-]` , can you help?
> 100 µM

Looking for the measured TGI of `O=C(/C=C/c1c(O)ccc2ccccc12)c1ccc([N+](=O)[O-])cc1` , can you help?
> 100 µM
